// provenance: ChEMBL document CHEMBL1132933

# UniProt:P00734: log10 of Ki values follow
Reminder: these figures are log10 of reported Ki, in nM before transformation.

Asked: Requested read-out: log10 of Ki. Entry: COC(=N)NS(=O)(=O)C(F)(F)F
Given back: 2.95

Asked: Queued: Cc1ccc(S(=O)(=O)NC(=O)NCCC(=O)N[C@@H](Cc2c[nH]cn2)C(=O)Nc2ccc(S(=O)(=O)NN=C(N)N)cc2)cc1
Given back: 1.00

Asked: Queued: N=C(N)NS(=O)(=O)C(F)(F)C(F)(F)C(F)(F)C(F)(F)C(F)(F)C(F)(F)C(F)(F)C(F)(F)F
Given back: 2.56

Asked: Queued: N=C(N)NS(=O)(=O)c1cccc(N)c1
Given back: 2.03

Asked: Queued: N=C(N)NNS(=O)(=O)c1ccc(I)cc1
Given back: 2.25

Asked: Queued: Cc1ccc(S(=O)(=O)NC(=O)N2CCC[C@H]2C(=O)NCC(=O)Nc2ccc(S(=O)(=O)NN=C(N)N)cc2)cc1
Given back: 1.18

Asked: Queued: N=C(N)NNS(=O)(=O)c1ccc(Br)cc1
Given back: 2.31
